Data provenance is patent US10800813.

Target: T1, human plasma Kallikrein (human, UniProt P03952 20-638, limits assumed)
T1 construct: also called hPK; human PK
T1 sequence (P03952 20-638 limits assumed): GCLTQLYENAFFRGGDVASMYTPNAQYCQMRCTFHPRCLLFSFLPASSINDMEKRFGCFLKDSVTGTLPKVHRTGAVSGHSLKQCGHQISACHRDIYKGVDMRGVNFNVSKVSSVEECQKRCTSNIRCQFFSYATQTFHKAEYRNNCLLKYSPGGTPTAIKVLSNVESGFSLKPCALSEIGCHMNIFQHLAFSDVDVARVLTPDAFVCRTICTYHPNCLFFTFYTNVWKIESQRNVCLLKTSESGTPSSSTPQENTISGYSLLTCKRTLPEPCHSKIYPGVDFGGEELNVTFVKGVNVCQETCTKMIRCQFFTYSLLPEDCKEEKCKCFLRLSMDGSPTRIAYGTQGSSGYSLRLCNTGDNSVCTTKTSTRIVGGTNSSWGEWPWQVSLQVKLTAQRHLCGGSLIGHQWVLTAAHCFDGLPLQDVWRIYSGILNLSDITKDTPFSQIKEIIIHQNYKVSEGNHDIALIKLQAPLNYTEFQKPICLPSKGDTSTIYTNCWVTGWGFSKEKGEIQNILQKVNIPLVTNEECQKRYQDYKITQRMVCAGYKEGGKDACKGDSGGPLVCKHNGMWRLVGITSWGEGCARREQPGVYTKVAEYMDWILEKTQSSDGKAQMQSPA
Experiment: enzyme inhibition assay
Numbered stars: 1 amine (or outer) side, 2 acyl side, 3 side chain; on linkers, the order of the positions; unused ones are H or OH. Bridge positions count the residues as written; N and C are the ends. Square brackets hold non-standard residues; d marks the D form. Bip = N[C@@H](Cc1ccc(-c2ccccc2)cc1)C(=O)O; 1Nal = N[C@@H](Cc1cccc2ccccc12)C(=O)O; 2Nal = N[C@@H](Cc1ccc2ccccc2c1)C(=O)O; TBMB = c1c(C[*:1])cc(C[*:3])cc1C[*:2]; 3Pal = N[C@@H](Cc1cccnc1)C(=O)O; Cha = N[C@@H](CC1CCCCC1)C(=O)O
Assay endpoint: pKi
The quantity pKi is defined as the negative base-10 logarithm of the molar concentration.

// pKi value for Ac-CSFP[Cha]RCLHQDLC-NH2 (linker 1-7-13 via TBMB; SMILES CC(=O)N[C@H]1CSCc2cc3cc(c2)CSC[C@H](NC(=O)[C@H](CCCNC(=N)N)NC(=O)[C@H](CC2CCCCC2)NC(=O)[C@@H]2CCCN2C(=O)[C@H](Cc2ccccc2)NC(=O)[C@H](CO)NC1=O)C(=O)N[C@@H](CC(C)C)C(=O)N[C@@H](Cc1c[nH]cn1)C(=O)N[C@@H](CCC(N)=O)C(=O)N[C@@H](CC(=O)O)C(=O)N[C@@H](CC(C)C)C(=O)N[C@H](C(N)=O)CSC3) [Ac-(06-34-18) Phe2 Cha4] : 9.04

Continuing:
// pKi value for Ac-CSFP[2Nal]RCLHQDLC-NH2 (linker 1-7-13 via TBMB) [Ac-(06-34-18) Phe2 2Nal4] : 8.14

// pKi value for Ac-CS[3Pal]PYRCLHQDLC-NH2 (linker 1-7-13 via TBMB) [Ac-(06-34-18) 3Pal2 Tyr4] : 9.04

// pKi value for Ac-CSFP[1Nal]RCLHQDLC-NH2 (linker 1-7-13 via TBMB; SMILES CC(=O)N[C@H]1CSCc2cc3cc(c2)CSC[C@H](NC(=O)[C@H](CCCNC(=N)N)NC(=O)[C@H](Cc2cccc4ccccc24)NC(=O)[C@@H]2CCCN2C(=O)[C@H](Cc2ccccc2)NC(=O)[C@H](CO)NC1=O)C(=O)N[C@@H](CC(C)C)C(=O)N[C@@H](Cc1c[nH]cn1)C(=O)N[C@@H](CCC(N)=O)C(=O)N[C@@H](CC(=O)O)C(=O)N[C@@H](CC(C)C)C(=O)N[C@H](C(N)=O)CSC3) [Ac-(06-34-18) Phe2 1Nal4] : 7.87

// pKi value for Ac-CSFP[Bip]RCLHQDLC-NH2 (linker 1-7-13 via TBMB) [Ac-(06-34-18) Phe2 4,4-BPal4] : 7.98

// pKi value for Ac-CS[Cha]PYRCLHQDLC-NH2 (linker 1-7-13 via TBMB) [Ac-(06-34-18) Cha2 Tyr4] : 8.73
